Here's a roundup of pKi values tested on UniProt:O43570, taken from various published works.
pKi: −log10 of the molar value.
READOUT_KIND: pKi

(P) NS(=O)(=O)CCCCn1cc(CNC(=O)Nc2ccc(C(F)(F)F)cc2)nn1
(Q) CN(CCCCCOC(=O)c1ccc(S(N)(=O)=O)cc1)CCCOC(=O)c1c2ccccc2cc2ccccc12
(R) NS(=O)(=O)c1ccc(N2N=C(c3ccc(O)cc3)CC2c2ccc([N+](=O)[O-])cc2)cc1 (centres unmarked)
Req: Put the items in sequence by pKi, from largest down. Present the labels in the sequence the task asks for.
Resp: R, Q, P
(R: 8.12, Q: 7.63, P: 5.58)

###

# merged literature set: Ki with Carbonic anhydrase 12 (Homo sapiens)
READOUT_KIND: Ki (nM)

* C=CCN1CCN(Cc2c(O)ccc3c(C)cc(=O)oc23)CC1 | 5.6
* NC1=NC2(CCCC2)NC(Nc2ccc(S(N)(=O)=O)cc2)=N1 | 7420
* COc1cc(/C=C/C(=O)OCCCCCCN(C)CCCOC(=O)c2ccc(S(N)(=O)=O)cc2)cc(OC)c1OC | 58.6
* CC(C)C(=O)Nc1ccc(C(=O)NC(=S)Nc2ccc(S(N)(=O)=O)cc2)cc1 | 94
* NS(=O)(=O)c1ccc(-n2c(-c3cccs3)nc(-c3ccccc3)c2-c2ccccc2)cc1 | 6400

(P) NS(=O)(=O)c1ccc(NC(=O)c2cc3occc3n2Cc2ccccc2Cl)cc1
(Q) Cc1cn([C@H]2C[C@H](n3cc(CNC(=O)Nc4cccc(S(N)(=O)=O)c4)nn3)[C@@H](CO)O2)c(=O)[nH]c1=O
(R) NS(=O)(=O)c1ccc(NC(=O)c2cc3occc3n2Cc2ccccc2)cc1
(S) NC1=NC2(CCCC2)N(c2ccc(S(N)(=O)=O)cc2)C(N)=N1
Req: Put the items in order so that reported Ki rises from first to last. I'd appreciate it if you listed the labels in the requested order.
Resp: R, Q, P, S
(R: 4.6 nM, Q: 8.4 nM, P: 19.6 nM, S: 5340 nM)

###

# literature pull: Carbonic anhydrase 12 (Homo sapiens) pKi
pKi: −log10 of the molar value.
READOUT_KIND: pKi

Examples with their reported pKi follow.
• Cc1ccc(O)c(-c2cc(C(=O)Nc3ccc(S(N)(=O)=O)cc3)[nH]n2)c1 = 6.60
• COc1cc(/C=C/C(=O)OCCCN(C)CCCOC(=O)c2ccc(S(N)(=O)=O)cc2)cc(OC)c1OC = 7.04
• COc1cc(/C=C/C(=O)OCCCCCN(C)CCCCCOC(=O)COc2ccc3ccc(=O)oc3c2)cc(OC)c1OC = 7.72

(P) CC(=O)c1ccc(-c2cc3ccccc3oc2=O)nc1C
(Q) NS(=O)(=O)c1ccc(NC(=O)c2ccc3cc[nH]c3c2)cc1
Req: Identify the entry with the smaller pKi: P or Q . // output: label of the selected item
Resp: P
(P: 6.17, Q: 7.08)

###

pKi: −log10 of the molar value.
Target or system Carbonic anhydrase 12 (Homo sapiens, UniProt O43570); metric pKi; compiled from varied reports.
READOUT_KIND: pKi

Below are worked cases with known answers.
• N#CCc1nc(N)nc(Nc2ccc(S(N)(=O)=O)cc2)n1 = 5.12
• CCOC(=O)c1ccc(NC(=S)NC(=O)c2ccc(NC(=O)c3ccc(C)cc3)cc2)cc1 = 6.81
• NS(=O)(=O)c1ccc(NC(=O)c2cc3sccc3n2Cc2ccc(Cl)cc2)cc1 = 8.05

(A) CN1C(=O)C(=C2C(=O)Nc3ccc(F)cc32)SC1=Nc1ccc(S(N)(=O)=O)cc1
(B) NS(=O)(=O)c1ccc(N2CC[C@H](NC(=O)Nc3ccc(F)cc3)C2)nc1
(C) COc1cc(C(=O)c2ccn(-c3cccc(S(N)(=O)=O)c3)c2)cc(OC)c1OC
Req: Returns the items ordered by pKi, from maximum to minimum. // format: requested-order list of labels
Resp: C, B, A
(C: 7.67, B: 7.30, A: 7.07)

(a) COc1c2ccoc2c(OCC=C(C)C)c2oc(=O)ccc12
(b) Cc1nc(-c2cc3ccccc3oc2=O)ccc1C(=O)/C=C/c1ccc([N+](=O)[O-])cc1
Req: Kindly compare a with b and tell me which has the lower pKi figure. Please reply using the label of the selected record.
Resp: b

###

System: Carbonic anhydrase 12 (Homo sapiens, UniProt O43570) | Read-out: Ki | Origin: multiple publications
READOUT_KIND: Ki (nM)

* COc1cccc(NC(=O)Nc2ccc(S(N)(=O)=O)cc2)c1 | 90.4
* NS(=O)(=O)c1ccc(NC(=O)c2cc(-c3cc(Cl)ccc3O)n[nH]2)cc1 | 90.8

(P) NS(=O)(=O)c1ccc(-n2c(-c3c(Cl)cccc3Cl)nc(-c3ccccc3)c2-c2ccccc2)cc1
(Q) Cc1cc(=O)oc2c(CN3CCN(c4ccccc4F)CC3)c(O)ccc12
Req: Which value of Ki is numerically greater: that of P or that of Q ? Kindly state the label of the option you pick.
Resp: P
(P: 4900 nM, Q: 26.4 nM)

###

pKi: −log10 of the molar value.
# literature pull: UniProt:O43570 pKi
READOUT_KIND: pKi

Take a look at these entries with their results.
- CN1C(=O)C(=C2C(=O)Nc3c(F)cccc32)SC1=Nc1ccc(S(N)(=O)=O)cc1: 7.04
- CC(=O)Nc1cc(S(N)(=O)=O)ccc1OCc1cn(CCCCS(=O)(=O)O)nn1: 7.39
- NS(=O)(=O)c1ccc(CNC(=O)[C@@H](CSc2ccccc2)NC(=O)OCc2ccccc2)cc1: 7.43
- NS(=O)(=O)c1ccc(NC(=O)CCc2c[nH]c3ccccc23)cc1: 7.37

(I) NS(=O)(=O)c1cccc(NC(=O)CCc2c[nH]c3ccccc23)c1
(II) COc1cccc(C(=O)N2CCc3cc(S(N)(=O)=O)ccc32)c1
(III) COc1cccc(NC(=O)NCc2cn(CCCCS(N)(=O)=O)nn2)c1
Req: Ascending by pKi, please: list the molecules accordingly. Your task in answering is to list the labels in the requested order.
Resp: III, II, I
(III: 5.33, II: 6.96, I: 7.27)

###

A compilation of pKi values for Carbonic anhydrase 12 (Homo sapiens, UniProt O43570) from the published literature.
pKi: −log10 of the molar value.
READOUT_KIND: pKi

Examples from the recorded data:
• Cc1cc(=O)oc2c(CN3CCN(c4ccc(F)cc4)CC3)c(O)ccc12 = 8.09
• Cc1cc(=O)oc2c(CN3CCN(C)CC3)c(O)ccc12 = 8.02

(A) NS(=O)(=O)c1ccc(CCNC(=O)CNC(=O)OCC2c3ccccc3-c3ccccc32)cc1
(B) COc1cc(C(=O)OCCCN(C)CCCCCOC(=O)c2ccc(S(N)(=O)=O)cc2)cc(OC)c1OC
Req: Could you please tell me which of these two has the higher pKi: A or B ? Could you answer with the label of the item you picked?
Resp: A
(A: 8.09, B: 7.20)

###

Compiled Ki measurements on Carbonic anhydrase 12 (Homo sapiens, UniProt O43570) taken from the literature.
READOUT_KIND: Ki (µM)

(1) Cc1nc(-c2cc3ccccc3oc2=O)ccc1C(=O)/C=C/c1cccc2ccccc12
(2) Cc1cccc(C(=O)N2CCc3cc(S(N)(=O)=O)ccc32)c1
(3) CC(C)(C)OC(=O)NCC(=O)NCc1ccc(S(N)(=O)=O)cc1
Req: Could you please sort these 3 entries by Ki from high to low? // ordering of labels required in reply
Resp: 1, 2, 3

###

Reported pKi on Carbonic anhydrase 12 (Homo sapiens) for assorted molecules, compiled from publications.
pKi: −log10 of the molar value.
READOUT_KIND: pKi

Sample records with pKi:
• CSCC[C@@H](NC(=O)OCc1ccccc1)C(=O)NCc1ccc(S(N)(=O)=O)cc1 = 7.13
• CSCC[C@H](NC(=O)OC(C)(C)C)C(=O)NCCc1ccc(S(N)(=O)=O)cc1 = 6.48
• CC(C)[C@@H](NC(=O)OC(C)(C)C)C(=O)NCCc1ccc(S(N)(=O)=O)cc1 = 6.70
• NS(=O)(=O)c1ccc(OCc2cn(CCCS(=O)(=O)[O-])nn2)cc1.[Na+] = 7.32

(a) COc1cc(/C=C/C(=O)OCCCN(C)CCCCCOC(=O)COc2ccc3ccc(=O)oc3c2)cc(OC)c1OC
(b) COc1cc(/C=C/C(=O)OCCCCCCN(C)CCCCOC(=O)c2ccc(S(N)(=O)=O)cc2)cc(OC)c1OC
(c) COc1ccc(C(=O)N2CCc3cc(S(N)(=O)=O)ccc32)c(OC)c1
(d) Cc1ccc(NC(=O)NCc2cn(CCCS(N)(=O)=O)nn2)cc1
Req: Order the records, beginning with the lowest pKi and ending with the highest. Respond with an ordered listing of the labels, as requested.
Resp: d, c, b, a
(d: 5.30, c: 6.95, b: 7.38, a: 8.05)
